# measuredTarget: MSI1 RRM1-RRM2 tandem (Homo sapiens, UniProt O43347 1-200)
# Sequence (O43347 1-200): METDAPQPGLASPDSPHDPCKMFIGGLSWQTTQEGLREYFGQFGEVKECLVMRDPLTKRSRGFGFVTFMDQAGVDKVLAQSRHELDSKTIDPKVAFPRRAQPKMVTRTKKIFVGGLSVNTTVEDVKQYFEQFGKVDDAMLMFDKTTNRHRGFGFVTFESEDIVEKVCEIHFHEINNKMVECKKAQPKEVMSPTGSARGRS
# experimentDescription: SPR; KD1 monovalent step, new rapid 2:1 model; SPR, 3'-biotinylated RNA immobilized on dextran sensor chip, protein as analyte; running buffer, salt, pH and temperature not in the material
# testParameters: protein: recombinant; label: 3'-biotin; linear, single UAG motif
measurementName: pKd
Value format note: pKd is -log10 of concentration (mol/L); just state the number.

Incoming: Could you tell me which pKd is on file for UUGUUAGUUACCCCUU (ssRNA) [RNA-L1] ?
Outgoing: 7.24

Where do these numbers come from? They come from paper PMC11542179.
